measured-on: UniProt:P22309
experiment-notes: Inhibition of raloxifene glucuronidation by recombinant UGT1A1 Supersomes
condition-context: human, Supersomes with recombinant human UGT1A1, pH 7.5, probe raloxifene 50 μM, formation of glucuronide G1, Inhibition of raloxifene glucuronidation, G1, UGT1A1, G1; inhibitor 25 μM; raloxifene 50 μM, 250 μg/ml Supersomes, 1 mM UDPGA, 15 min
Hi there, I'd appreciate the recorded activity at 15 min, 25 µM for every entry that follows.

Example cases with answers are listed next.
>>> measured_value("O=C(OC[C@H]1O[C@@H](OC(=O)c2cc(O)c(O)c(OC(=O)c3cc(O)c(O)c(O)c3)c2)[C@H](OC(=O)c2cc(O)c(O)c(OC(=O)c3cc(O)c(O)c(O)c3)c2)[C@@H](OC(=O)c2cc(O)c(O)c(OC(=O)c3cc(O)c(O)c(O)c3)c2)[C@@H]1OC(=O)c1cc(O)c(O)c(OC(=O)c2cc(O)c(O)c(O)c2)c1)c1cc(O)c(O)c(OC(=O)c2cc(O)c(O)c(O)c2)c1")
"4%"
>>> measured_value("O=C(O[C@@H]1Cc2c(O)cc(O)cc2O[C@H]1c1cc(O)c(O)c(O)c1)c1cc(O)c(O)c(O)c1 [Gallocatechin gallate]")
"52%"
>>> measured_value("CC/C(=C(/CC)c1ccc(O)cc1)c1ccc(O)cc1 [Diethylstilbestrol, reference compound]")
"26%"

Reported activity at 15 min, 25 µM for CCCCCCCCOC(=O)c1cc(O)c(O)c(O)c1 [Octyl gallate] : what is it?
37%

---

measured-on: UGT1A3 (Homo sapiens, UniProt P35503)
Sequence (P35503 29-534): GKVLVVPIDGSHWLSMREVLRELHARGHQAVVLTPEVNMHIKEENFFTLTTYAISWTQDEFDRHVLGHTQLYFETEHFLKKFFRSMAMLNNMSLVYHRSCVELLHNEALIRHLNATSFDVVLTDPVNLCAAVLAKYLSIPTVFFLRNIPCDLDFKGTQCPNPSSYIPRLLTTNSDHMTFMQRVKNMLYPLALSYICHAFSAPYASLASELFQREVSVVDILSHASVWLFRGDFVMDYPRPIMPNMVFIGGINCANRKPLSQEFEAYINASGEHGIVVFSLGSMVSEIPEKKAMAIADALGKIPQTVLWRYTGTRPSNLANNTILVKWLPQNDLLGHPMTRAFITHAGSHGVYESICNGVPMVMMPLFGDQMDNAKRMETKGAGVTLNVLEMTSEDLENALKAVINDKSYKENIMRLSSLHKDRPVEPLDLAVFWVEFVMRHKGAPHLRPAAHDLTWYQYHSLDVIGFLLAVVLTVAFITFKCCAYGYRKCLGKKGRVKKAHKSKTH
experiment-notes: in vitro
condition-context: pH 7.5, % of control metabolism, raloxifene G2
Binarize activity at 15 min, 50 µM at 80%; below is fulfilled, at or above is not fulfilled.

Solved entries (count: 5):
>>> assigned_class("COc1cc(C2Oc3cc([C@H]4Oc5cc(O)cc(O)c5C(=O)[C@@H]4O)ccc3OC2CO)ccc1O (stereo partly shown)")
"fulfilled"
>>> assigned_class("COc1c(C)c2c(c(O)c1C/C=C(\\C)CCC(=O)O)C(=O)OC2 [Mycophenolic acid, reference compound]")
"not fulfilled"
>>> assigned_class("O=C(O[C@@H]1Cc2c(O)cc(O)cc2O[C@@H]1c1ccc(O)c(O)c1)c1cc(O)c(O)c(O)c1 [Epicatechin gallate]")
"fulfilled"
>>> assigned_class("O=C(O)Cc1ccccc1Nc1c(Cl)cccc1Cl [Diclofenac, reference compound]")
"fulfilled"
>>> assigned_class("CCCOC(=O)c1cc(O)c(O)c(O)c1 [Propyl gallate]")
"fulfilled"

Problem: For the molecule `C=CCc1ccc(O)c(OC)c1` , is activity at 15 min, 50 µM under 80%?
not fulfilled

---

measured-on: UGT1A1 (Homo sapiens, UniProt P22309)
Sequence (P22309 26-533): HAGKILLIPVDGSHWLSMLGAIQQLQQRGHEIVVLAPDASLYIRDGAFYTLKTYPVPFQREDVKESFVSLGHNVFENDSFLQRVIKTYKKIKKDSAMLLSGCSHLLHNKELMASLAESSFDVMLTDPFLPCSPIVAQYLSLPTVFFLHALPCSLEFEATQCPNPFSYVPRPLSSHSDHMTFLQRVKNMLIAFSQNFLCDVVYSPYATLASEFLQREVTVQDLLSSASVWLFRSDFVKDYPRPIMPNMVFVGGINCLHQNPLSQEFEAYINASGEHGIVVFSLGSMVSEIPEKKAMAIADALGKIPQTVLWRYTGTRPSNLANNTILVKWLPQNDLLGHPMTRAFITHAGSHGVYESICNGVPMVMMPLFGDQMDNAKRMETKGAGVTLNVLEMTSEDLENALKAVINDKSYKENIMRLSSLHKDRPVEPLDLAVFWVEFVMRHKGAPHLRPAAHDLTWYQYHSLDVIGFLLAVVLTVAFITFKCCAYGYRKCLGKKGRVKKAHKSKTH
experiment-notes: Inhibition of raloxifene glucuronidation by recombinant UGT1A1 Supersomes
condition-context: human, Supersomes with recombinant human UGT1A1, pH 7.5, probe raloxifene 50 μM, formation of glucuronide G2, % of control metabolism, raloxifene G2, UGT1A1; inhibitor 50 μM
quantity-name: activity at 15 min, 50 µM (%)
Numbers only, in %.

Reference set (3 entries):
>>> measured_value("CC/C(=C(/CC)c1ccc(O)cc1)c1ccc(O)cc1 [Diethylstilbestrol, reference compound]")
27
>>> measured_value("CCCCCCCCOC(=O)c1cc(O)c(O)c(O)c1 [Octyl gallate]")
31
>>> measured_value("O=C(OC[C@H]1O[C@@H](OC(=O)c2cc(O)c(O)c(OC(=O)c3cc(O)c(O)c(O)c3)c2)[C@H](OC(=O)c2cc(O)c(O)c(OC(=O)c3cc(O)c(O)c(O)c3)c2)[C@@H](OC(=O)c2cc(O)c(O)c(OC(=O)c3cc(O)c(O)c(O)c3)c2)[C@@H]1OC(=O)c1cc(O)c(O)c(OC(=O)c2cc(O)c(O)c(O)c2)c1)c1cc(O)c(O)c(OC(=O)c2cc(O)c(O)c(O)c2)c1")
0.9

# ---- query compound ----
Value lookup for activity at 15 min, 50 µM; key = O=C(O[C@@H]1Cc2c(O)cc(O)cc2O[C@H]1c1cc(O)c(O)c(O)c1)c1cc(O)c(O)c(O)c1 [Gallocatechin gallate]
32
